target: A/Anhui/1/2013 (E2/S1) virus isolate neuraminidase (Influenza A virus (A/Anhui/1/2013(H7N9)), UniProt A0A024E3Q2); type: biochemical; conditions: pH 5.1

| Query smiles | IC50 [nM] |
| --- | --- |
| CC(=O)N[C@H]1[C@H]([C@H](O)[C@H](O)CO)OC(C(=O)O)=C[C@@H]1N=C(N)N | 1 |
| CO[C@@H]([C@@H]1OC(C(=O)O)=C[C@H](NC(=N)N)[C@H]1NC(C)=O)[C@H](O)CO | 1.29 |

----------
biological target: Oseltamivir-sensitive A/Washington/01/2007 neuraminidase (Influenza A virus (H3N2), UniProt A7UPN3); test: biochemical; settings: pH 5.1; read-out: IC50
Value type: IC50 (nM)

| Query smiles | Value type | Measurement units | Observed result |
| --- | --- | --- | --- |
| CCC(CC)[C@H](NC(C)=O)[C@@H]1[C@H](O)[C@@H](C(=O)O)C[C@H]1N=C(N)N | IC50 | nM | 0.1 |
